# pIC50 annotations
Biological target: UniProt:Q16581
Sequence (Q16581 whole entry): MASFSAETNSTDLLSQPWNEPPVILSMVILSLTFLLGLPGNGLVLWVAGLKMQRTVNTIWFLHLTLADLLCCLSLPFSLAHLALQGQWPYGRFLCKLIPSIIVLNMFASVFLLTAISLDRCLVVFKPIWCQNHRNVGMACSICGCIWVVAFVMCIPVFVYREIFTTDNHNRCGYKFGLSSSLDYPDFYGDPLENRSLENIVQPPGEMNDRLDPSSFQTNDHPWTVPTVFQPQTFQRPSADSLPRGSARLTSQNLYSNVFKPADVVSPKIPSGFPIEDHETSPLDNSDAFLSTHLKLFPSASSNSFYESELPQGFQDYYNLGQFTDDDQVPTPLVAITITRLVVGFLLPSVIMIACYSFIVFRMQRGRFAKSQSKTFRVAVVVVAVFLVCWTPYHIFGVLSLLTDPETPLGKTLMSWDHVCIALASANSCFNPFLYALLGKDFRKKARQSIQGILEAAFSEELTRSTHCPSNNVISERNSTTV
Assay: Inhibition of human C3a receptor expressed on HMC1 cells by SPA assay
pIC50: −log10 of the molar value.
assay metric: pIC50

[[record]]
given_smiles = "N=C(N)NCCC[C@@H](NC(=O)c1ccc(-c2csc3ccccc23)o1)C(=O)O"
assay_metric = "pIC50"
test_result = 6.50

[[record]]
given_smiles = "N=C(N)NCCC[C@@H](NC(=O)c1ccc(-c2cccc(Cl)c2)s1)C(=O)O"
assay_metric = "pIC50"
test_result = 5.20

[[record]]
given_smiles = "NC(N)=NCCC[C@@H](NC(=O)c1ccc(C(c2ccc(Cl)cc2)c2ccc(Cl)cc2)o1)C(=O)O"
assay_metric = "pIC50"
test_result = 6.80

[[record]]
given_smiles = "N=C(N)NCCC[C@@H](NC(=O)c1ccc(-c2cccc(CO)c2)o1)C(=O)O"
assay_metric = "pIC50"
test_result = 6.10

[[record]]
given_smiles = "NC(N)=NCCC[C@@H](NC(=O)c1cccc(-c2cccc(Cl)c2)c1)C(=O)O"
assay_metric = "pIC50"
test_result = 6.10

[[record]]
given_smiles = "N=C(N)NCCC[C@@H](NC(=O)c1ccc(C(c2cccc(Cl)c2)c2cccc(Cl)c2)o1)C(=O)O"
assay_metric = "pIC50"
test_result = 7.80

[[record]]
given_smiles = "N=C(N)NCCC[C@@H](NC(=O)c1ccc(-c2cccc(F)c2)o1)C(=O)O"
assay_metric = "pIC50"
test_result = 6.50

[[record]]
given_smiles = "COc1cccc(-c2ccc(C(=O)N[C@H](CCCN=C(N)N)C(=O)O)o2)c1"
assay_metric = "pIC50"
test_result = 6.50

